- TARGET_UNDER_TEST: Oxytocin receptor (Homo sapiens) (UniProt P30559)
- Sequence (P30559 whole entry, looked up): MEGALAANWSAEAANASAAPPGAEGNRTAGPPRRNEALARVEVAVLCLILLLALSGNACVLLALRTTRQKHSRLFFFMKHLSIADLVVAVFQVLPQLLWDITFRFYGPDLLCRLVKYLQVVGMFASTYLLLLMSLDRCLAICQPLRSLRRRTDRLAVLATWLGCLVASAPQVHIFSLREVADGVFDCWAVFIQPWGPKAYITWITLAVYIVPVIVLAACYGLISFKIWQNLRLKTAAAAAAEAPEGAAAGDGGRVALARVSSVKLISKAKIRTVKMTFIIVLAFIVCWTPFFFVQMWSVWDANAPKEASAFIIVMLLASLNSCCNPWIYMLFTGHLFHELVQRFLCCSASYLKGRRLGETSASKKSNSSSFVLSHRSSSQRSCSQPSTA
- PROTOCOL: oxytocin receptor activation by calcium flux – fluorescence, CHO-OTR cells, Fluo-8 calcium, primary screen (AID 2435);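 note: peak over basal fluorescence ratio from a 100 s FLIPR kinetic read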
- CONDITION_DETAILS: Fluo-8 calcium fluorescence, at 3 µM, normalized: DMSO 0%, oxytocin 100%
Hit rate of the full screen: of about 320,000 compounds, about 1,000 (0.31%) were called active.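 Rule for the calls: active = activation above the mean of all tested compounds plus 3 SD, cutoff set per screening run (cut at about 20% in these data); inactive = the rest.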 What follows is part of a selection rich in actives, with near analogues and random picks from the rest.
Write down the outcome that applies. Available outcomes: TRUE = active, FALSE = inactive

**Query** Status in this test for `NC(=O)C1=C[C@@H](c2csc3ccccc23)C[C@@H](OCc2ccc(CO)cc2)O1` ?
**Result** FALSE

Next:
**Query** Status in this test for CC(O)CNCCOc1cccc(Oc2ccccc2)c1 (stereo unspecified) ?
**Result** FALSE

**Query** Status in this test for `Cc1cccc(OCC(=O)NC(=S)Nc2ccccc2N2CCOCC2)c1` ?
**Result** FALSE

**Query** Status in this test for O=C(C1CCCN1S(=O)(=O)c1ccc(Br)cc1)N1CCOCC1 (stereo unspecified) ?
**Result** FALSE

**Query** Status in this test for Cc1nc(C(=O)NCc2ccccc2)sc1C1(C)CC(c2cccnc2)=NO1 (stereo unspecified) ?
**Result** TRUE

**Query** Status in this test for `CCc1cccc(CC)c1NC(=O)COc1ccccc1C(=O)c1cc(C#N)c(=O)n(C2CCCCC2)c1` ?
**Result** FALSE

**Query** Status in this test for COc1ccccc1OCCNCC(O)COc1cccc2[nH]c3ccccc3c12 (stereo unspecified) ?
**Result** TRUE
